Value source: ChEMBL document CHEMBL1275336

# procedure.details: Protection index, ratio of CC50 for Mycobacterium tuberculosis infected mouse J774A1 cells to MIC for Mycobacterium tuberculosis H37Rv ATCC 27294
# Assay type: functional, J774.A1
reported.endpoint: PI

cpd.smiles | PI
CSc1ccc(-n2c(-c3ccc(F)cc3)cc(CN3CCSCC3)c2C)cc1 | >128
CN[C@@H]1[C@H](O[C@H]2[C@H](O[C@H]3[C@H](O)[C@@H](O)[C@H](N=C(N)N)[C@@H](O)[C@@H]3N=C(N)N)O[C@@H](C)[C@]2(O)C=O)O[C@@H](CO)[C@H](O)[C@H]1O | >2000
CCCc1ccc(-c2cc(CN3CCSCC3)c(C)n2-c2ccc(OC)cc2)cc1 | >512
COc1ccc(-c2cc(CN3CCSCC3)c(C)n2-c2ccc(F)cc2)cc1 | >480

Asked: # query: PI of entry CSc1ccc(-c2cc(CN3CCSCC3)c(C)n2-c2ccc(F)cc2)cc1
Given back: >1000
